- System: Candida albicans
- assay: Ratio of miconazole MIC50 to compound MIC50 for Candida albicans
- Assay type: functional
Record form. Attribute: Ratio. Fill in for each entry.
Give bare numbers.

Worked set:
smiles.str: O=C1C(Cl)=C(Oc2cccc3ccccc23)C(=O)c2ccccc21
Ratio: 2

smiles.str: O=C1C(Cl)=C(Oc2ccc(Cl)cc2)C(=O)c2ccccc21
Ratio: 2

smiles.str: Cc1ccc(OC2=C(Cl)C(=O)c3ccccc3C2=O)cc1
Ratio: 4

For each entry beneath this line, provide reported Ratio.
1. O=c1c2oc3ccccc3oc=2c(=O)c2ccccc12
2. COc1ccc(OC2=C(Cl)C(=O)c3ccccc3C2=O)cc1

### Response
[4, 2]
